# pKd per record follows
Biological target: HLA-A*02:03
Test: IEDB peptide-MHC binding, purified MHC/competitive/radioactivity; filed as Kd, often an IC50 or EC50 that approximates it; bounds were set here for any values at or beyond the usual limits of such assays
Conditions: source organism: Dengue virus 2 Jamaica/1409/1983
pKd: −log10 of the molar value.

- biosequence: "MMATIGIALL"
  pKd: 9.03
- biosequence: "IMAAILAYT"
  pKd: 8.28
- biosequence: "ILLVAVSFV"
  pKd: 8.95
- biosequence: "PLVAGGLLTV"
  pKd: 7.45
- biosequence: "TLYAVATTFV"
  pKd: 8.58

* * *

Biological target: HLA-A*68:01
Assay: IEDB peptide-MHC binding, purified MHC/competitive/radioactivity; filed as Kd, often an IC50 or EC50 that approximates it; bounds were set here for any values at or beyond the usual limits of such assays
Settings: source organism: Vaccinia virus WR
pKd: −log10 of the molar value.
Would you mind labelling by pKd? At or over 6 is yes (1), under is no (0).

- biosequence: "SAVVDNKLK"
  group.label: "yes (1)"
- biosequence: "LSARNKLFK"
  group.label: "yes (1)"
- biosequence: "TMCTEETKR"
  group.label: "yes (1)"
- biosequence: "VTSLAIKNYY"
  group.label: "yes (1)"
- biosequence: "LLNSMMNRDK"
  group.label: "no (0)"
- biosequence: "NAISSRVDRY"
  group.label: "no (0)"
- biosequence: "TVKTNLYMK"
  group.label: "yes (1)"
- biosequence: "VIVVPVIDR"
  group.label: "yes (1)"
- biosequence: "NFGTIILNK"
  group.label: "yes (1)"
- biosequence: "ALKKLIIDR"
  group.label: "no (0)"
- biosequence: "SAVFKDSFLR"
  group.label: "yes (1)"
- biosequence: "VMANNVKKK"
  group.label: "no (0)"
- biosequence: "SSFIMRNFLR"
  group.label: "yes (1)"
- biosequence: "ELNIVDEIIK"
  group.label: "no (0)"
- biosequence: "TLSPAHLINK"
  group.label: "yes (1)"
- biosequence: "SIYSRPKIK"
  group.label: "yes (1)"
- biosequence: "AAVTLNRIK"
  group.label: "no (0)"
- biosequence: "MQKFTILEY"
  group.label: "no (0)"
- biosequence: "DVKVLAARLK"
  group.label: "yes (1)"
- biosequence: "IIFLKLFKK"
  group.label: "yes (1)"
- biosequence: "PSAEDNYLAK"
  group.label: "no (0)"
- biosequence: "SAFNDDGIY"
  group.label: "no (0)"
- biosequence: "NSFIISTLNK"
  group.label: "yes (1)"
- biosequence: "VTISKDNLER"
  group.label: "yes (1)"
- biosequence: "ESRDRKWLY"
  group.label: "no (0)"
- biosequence: "VIPFDDIVR"
  group.label: "yes (1)"
- biosequence: "IAARILSEK"
  group.label: "yes (1)"
- biosequence: "LIMFEQYFIY"
  group.label: "no (0)"
- biosequence: "IVNNQESNKY"
  group.label: "no (0)"
- biosequence: "VSIILANERY"
  group.label: "no (0)"
- biosequence: "NIADAARHY"
  group.label: "yes (1)"
- biosequence: "NFDYPFFRK"
  group.label: "yes (1)"
- biosequence: "EISSNDNAK"
  group.label: "yes (1)"
- biosequence: "FLDKSIHLTK"
  group.label: "yes (1)"
- biosequence: "TILLSDKGK"
  group.label: "yes (1)"
- biosequence: "MATMLEYVRY"
  group.label: "yes (1)"
- biosequence: "GIFKNNDVR"
  group.label: "yes (1)"
- biosequence: "PVIVVPVIDR"
  group.label: "yes (1)"
- biosequence: "ALEYLSELK"
  group.label: "no (0)"
- biosequence: "PIFSDLLKY"
  group.label: "no (0)"
- biosequence: "IFPGDKTSY"
  group.label: "no (0)"
- biosequence: "FSCGLSLQDY"
  group.label: "yes (1)"
- biosequence: "HAFDAPTLY"
  group.label: "yes (1)"
- biosequence: "NLEMIDERK"
  group.label: "yes (1)"
- biosequence: "YTVEFDRDK"
  group.label: "yes (1)"
- biosequence: "AVFKDSFLR"
  group.label: "yes (1)"
- biosequence: "KIIAVFDSK"
  group.label: "yes (1)"
- biosequence: "DFESVTNSVY"
  group.label: "no (0)"
- biosequence: "LMYDIINSV"
  group.label: "no (0)"
- biosequence: "HLRVLFSIFY"
  group.label: "no (0)"
- biosequence: "DLIVTFRERY"
  group.label: "yes (1)"
- biosequence: "YVIRHVDGK"
  group.label: "yes (1)"
- biosequence: "FFRKLVLTNK"
  group.label: "no (0)"
- biosequence: "LSSIKSKSRR"
  group.label: "yes (1)"
- biosequence: "QTTVNTLSER"
  group.label: "yes (1)"
- biosequence: "CTDPSERVFK"
  group.label: "yes (1)"
- biosequence: "LLLPSTDVNK"
  group.label: "no (0)"
- biosequence: "IAPGIADIR"
  group.label: "yes (1)"

* * *

Target: HLA-A*02:11
Experiment: IEDB peptide-MHC binding, purified MHC/competitive/fluorescence; filed as Kd, often an IC50 or EC50 that approximates it; bounds were set here for any values at or beyond the usual limits of such assays
Conditions: source organism: Brucella abortus S19

- biosequence: "KQWIVAGAI"
  tgt: "HLA-A*02:11"
  Kd: "≤ 0.1 nM"

* * *

Target: HLA-B*39:01
Assay: IEDB peptide-MHC binding, purified MHC/competitive/fluorescence; filed as Kd, often an IC50 or EC50 that approximates it; bounds were set here for any values at or beyond the usual limits of such assays
Conditions: source organism: Brucella abortus S19
pKd: −log10 of the molar value.

- biosequence: "KQWIVAGAI"
  tgt: "HLA-B*39:01"
  pKd: "≤ 4.70"

* * *

Target: HLA-A*68:02
Assay: IEDB peptide-MHC binding, purified MHC/competitive/radioactivity; filed as Kd, often an IC50 or EC50 that approximates it; bounds were set here for any values at or beyond the usual limits of such assays
Settings: source organism: Dengue virus 3 Martinique/1243/1999
pKd: −log10 of the molar value.

- biosequence: "MGMGVTYLA"
  pKd: 7.50

* * *

Biological target: HLA-A*03:01
Assay: IEDB peptide-MHC binding, purified MHC/direct/fluorescence; filed as Kd, often an IC50 or EC50 that approximates it; bounds were set here for any values at or beyond the usual limits of such assays
Settings: source organism: Bacillus anthracis
pKd: −log10 of the molar value.

- biosequence: "YFENSDLNL"
  tgt: "HLA-A*03:01"
  pKd: "≤ 4.70"

* * *

Target: HLA-C*14:02
Test: IEDB peptide-MHC binding, purified MHC/direct/fluorescence; filed as Kd, often an IC50 or EC50 that approximates it; bounds were set here for any values at or beyond the usual limits of such assays
Conditions: source organism: Anopheles gambiae str. PEST
pKd: −log10 of the molar value.
parameter.measured: pKd

- biosequence: "RYFSVTRPL"
  result: "≥ 9.00"

* * *

# Kd per record follows
Biological target: HLA-A*02:06
Test: IEDB peptide-MHC binding, purified MHC/competitive/radioactivity; filed as Kd, often an IC50 or EC50 that approximates it; bounds were set here for any values at or beyond the usual limits of such assays
Conditions: source organism: Dengue virus 1 Brazil/97-11/1997

- biosequence: "WLVHKQWFL"
  tgt: "HLA-A*02:06"
  unit.tag: "nM"
  Kd: 93.4
- biosequence: "AQMWQLMYF"
  tgt: "HLA-A*02:06"
  unit.tag: "nM"
  Kd: 9.54
- biosequence: "WTLYAVATTV"
  tgt: "HLA-A*02:06"
  unit.tag: "nM"
  Kd: 90.1

* * *

Biological target: HLA-A*02:02
Experiment: IEDB peptide-MHC binding, purified MHC/competitive/radioactivity; filed as Kd, often an IC50 or EC50 that approximates it; bounds were set here for any values at or beyond the usual limits of such assays
Details: source organism: Mammarenavirus lassaense
pKd: −log10 of the molar value.
parameter.measured: pKd

- biosequence: "LLWDYMCIS"
  result: 6.84
- biosequence: "LNCLSLLLSV"
  result: 6.91

* * *

Target: HLA-B*08:01
Assay: IEDB peptide-MHC binding, purified MHC/competitive/radioactivity; filed as Kd, often an IC50 or EC50 that approximates it; bounds were set here for any values at or beyond the usual limits of such assays
Settings: source organism: Dengue virus 1 Singapore/S275/1990

- biosequence: "IMAVGIVSIL"
  tgt: "HLA-B*08:01"
  unit.tag: "nM"
  Kd: 173
